- method: folding stability dG unfold from trypsin proteolysis; higher = more stable
quantity: folding stability dG unfold (kcal/mol)
The response must be a number in kcal/mol with no trailing unit.

Can you share its folding stability dG unfold? I mean this sequence: SAGGSASLNLTPDDNVTLTVSTPDGSGATVEVKVEKLPDGTIKLTETVTWPDGTVSTRTSTISTKASAGGSA [r15_476_JUSTAS]
1.08

Can you share its folding stability dG unfold? I mean this sequence: SAGGSAGGSKKKPYIIKIYYKDPKTKKKSKKEILVSGKVKNPEKFAKEAAKKLGPVGKVEFKPSAGGSAGGS [r12_942_TrMRF]
-0.0324

Can you share its folding stability dG unfold? I mean this sequence: SAGGSAGGSAGVIVTPEGDRIVTYDPNTGSVTVTPLDAAGNPLTTTVVAPNGPVVTVTELSAGGSAGGSAGG [r17_385_JUSTAS]
1.66

Can you share its folding stability dG unfold? I mean this sequence: SAGGSMNPYSETITVNLPVPTPSGGSVVRPVTVPISIVYEDEKELEEALKKAKEEAEAAARKALGLESAGGS [r16_339_JUSTAS]
1.37

Can you share its folding stability dG unfold? I mean this sequence: SAGSSLRLELDLEVTLYAPVVSVRPDGSLSLVPGSTRPIPVRLRVTFELTLDPDNPLNVSINVDIEADFSAG [r14_274_TrMRF]
4.1

Can you share its folding stability dG unfold? I mean this sequence: SAGNMFMVRITFPMPRYEQKRDPDNGKPKMEPKPHPREITIMVPPDSPQARDLANKLAPPGWKVDVFPMSAG [r5_468_TrROS]
0.0695

Can you share its folding stability dG unfold? I mean this sequence: SAGGSAGGMEIRIEKDENGFLRLKVINKKTKKETEIEIPVEDEDALKKLLDAGVERVEIEPLPPSAGGSAGG [r6_639_TrROS_Hall]
0.399

Can you share its folding stability dG unfold? I mean this sequence: SAGGSAGGSAGGKITFAPKTTLLLTATIPVTVYSLHPDGTLTTETRSATITFTIPPELLSAGGSAGGSAGGS [r10_383_TrMRF]
2.4

Can you share its folding stability dG unfold? I mean this sequence: SAGMTTTLTKGEDGVTLTFDLPGQSVTLTVPVPPDVEVTTSFPATGTTITGTPVGDTLTITVTVPAPASAGG [r19_384_JUSTAS]
1.78

Can you share its folding stability dG unfold? I mean this sequence: SAGGMNIVTYTLTIPPGRIEEVKEAIEALGIPVVKVELVEVLPGEGLAIVKIEVPNNVDPEKVKKALSSAGG [r13_725_JUSTAS]
3.97

Can you share its folding stability dG unfold? I mean this sequence: SAGGSAGGSAGGSPEFKIVSVEYDPETGLVTLEIEREDGSTLRFVFDKDGKLVRVEELPSAGGSAGGSAGGS [r4_259_TrROS_Hall]
3.31

Can you share its folding stability dG unfold? I mean this sequence: SMKPGDKLLIRIRLPPVKVEREYFDKDGKLVKKETKEVKEVELVIELSPEELEKLRELLKELGFEVEILPSA [r9_167_TrROS_Hall]
2.83

Can you share its folding stability dG unfold? I mean this sequence: SKFKIDEIKYEPNKPYTIKVKLPDGTTIEIKYDPNKPNEVKIILTHPDGSKKEFTLPYNYPININLKVNPSA [r9_875_TrMRF]
1.59

Can you share its folding stability dG unfold? I mean this sequence: PKYVIKAVNPKVGEVKTIEVDDDPEKAIEALKALKKADPDIKFYISGVKSDELIEAAKEAGLEDLNFTEVES [r1_114_TrMRF]
3.2
